# measured target: Chymase (Homo sapiens, UniProt P23946)
# Sequence (P23946 22-247, species assumed): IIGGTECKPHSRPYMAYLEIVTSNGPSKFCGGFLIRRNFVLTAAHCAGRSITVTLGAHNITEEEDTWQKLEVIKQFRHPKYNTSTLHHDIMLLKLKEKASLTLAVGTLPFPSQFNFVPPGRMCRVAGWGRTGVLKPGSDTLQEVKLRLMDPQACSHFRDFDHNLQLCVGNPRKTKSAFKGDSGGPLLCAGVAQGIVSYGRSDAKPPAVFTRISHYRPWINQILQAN
# protocol notes: In vitro Assay for Inhibition of Chymase
# Type: biochemical
# measurement conditions: 500 pM chymase, 100 nM rhodamine 110 peptide substrate, 1 hour at 28° C., fluorescence
recorded endpoint: IC50 (nM)

Some entries whose results are on file:
[
  {
    "compound": "Cc1cccc2c1c(Cn1c(=O)n([C@@H](C)C(=O)O)c(=O)c3ccccc31)cn2C",
    "measured target": "Chymase (Homo sapiens, UniProt P23946)",
    "recorded endpoint": "IC50",
    "experimental result": 2.5
  },
  {
    "compound": "Cc1cccc2c1c(Cn1c(=O)n([C@H](C)C(=O)O)c(=O)c3ccccc31)cn2C",
    "measured target": "Chymase (Homo sapiens, UniProt P23946)",
    "recorded endpoint": "IC50",
    "experimental result": 1.9
  },
  {
    "compound": "Cc1cc(C)c2c(Cn3c(=O)n(C4(CC(=O)O)CCCCC4)c(=O)c4ccccc43)nsc2c1",
    "measured target": "Chymase (Homo sapiens, UniProt P23946)",
    "recorded endpoint": "IC50",
    "experimental result": 4
  }
]

[A] CCC[C@@H](C(=O)O)n1c(=O)c2ccccc2n(Cc2cn(C)c3cccc(C)c23)c1=O
[B] Cc1cccc2c1c(Cn1c(=O)n(C3(CC(=O)O)CCCCC3)c(=O)c3ccccc31)cn2C
Query :: Thinking about recorded IC50 values, which is higher, A or B ? Please indicate the selected item by its label.
Result :: B

// provenance: patent US8377949B2
